Protein target, amino acids: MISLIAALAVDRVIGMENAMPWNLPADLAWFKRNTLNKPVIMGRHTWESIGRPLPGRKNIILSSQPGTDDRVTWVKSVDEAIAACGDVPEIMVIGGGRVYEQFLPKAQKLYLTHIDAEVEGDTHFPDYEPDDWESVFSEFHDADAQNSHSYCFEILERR
property: log(1/I50)

• COc1cccc(Cc2cnc(N)nc2N)c1 = 6.31
• COc1ccc(Cc2cnc(N)nc2N)cc1OC = 7
• Cc1ccc(Cc2cnc(N)nc2N)cc1 = 5.64
• COc1ccc(Cc2cnc(N)nc2N)cc1 = 5.96
• Nc1ncc(Cc2ccc(Cl)cc2)c(N)n1 = 5.68
• Nc1ncc(Cc2ccc(O)cc2)c(N)n1 = 5.74
• COc1cc(Cc2cnc(N)nc2N)cc(Cl)c1OC = 7.4

====

- System: Plasmodium berghei
- assay-info: Antimalarial activity against Plasmodium berghei infected mouse assessed as suppression of parasitemia administered through diet for 6 days
- Assay type: functional
property: log(1/SD90)
Please reply with the value in numeric form only.

Consider the following illustrative entries.
* Cc1c(NCc2ccc(Cl)c(Cl)c2)ccc2nc(N)nc(N)c12 | 4.83
* CCN(Cc1ccc(Cl)cc1)c1ccc2nc(N)nc(N)c2c1 | 6.4
* Nc1nc(N)c2c(Cl)c(NCc3ccc(Cl)c(Cl)c3)ccc2n1 | 5.72
* CCCN(Cc1ccc(Cl)c(Cl)c1)c1ccc2nc(N)nc(N)c2c1 | 6.1
* Nc1nc(N)c2cc(NCCc3ccc(Cl)cc3)ccc2n1 | 4.24

API: the following record is the query input.
Input line: Using known records, supply log(1/SD90) for Nc1nc(N)c2cc(N(Cc3ccc(Cl)c(Cl)c3)N=O)cnc2n1
Output line: 4.48

====

- Tested on: Plasmodium berghei
- assay-info: Antimalarial activity against Plasmodium berghei infected mouse assessed as suppression of parasitemia administered through diet for 6 days
- Assay type: functional
property: log(1/SD90)
Please reply with the value in numeric form only.

* CC(C)N(Cc1ccc(Cl)cc1)c1ccc2nc(N)nc(N)c2c1 | 6.76

Input line: Using known records, supply log(1/SD90) for CCCCN(Cc1ccc(Cl)c(Cl)c1)c1ccc2nc(N)nc(N)c2c1
Output line: 5.06

Input line: Using known records, supply log(1/SD90) for COc1cccc(CNc2ccc3nc(N)nc(N)c3c2)c1
Output line: 4.15

====

Target sequence: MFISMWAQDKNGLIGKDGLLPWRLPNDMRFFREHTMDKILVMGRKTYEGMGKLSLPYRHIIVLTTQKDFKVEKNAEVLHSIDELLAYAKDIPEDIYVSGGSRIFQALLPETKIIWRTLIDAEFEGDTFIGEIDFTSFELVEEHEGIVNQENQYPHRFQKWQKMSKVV
property: log(1/I50)

Consider the following illustrative entries.
- CCOC(=O)c1ccc(NCc2ccc3nc(N)nc(O)c3c2)cc1: 7.07
- CCOC(=O)CCC(NC(=O)c1ccc(NCc2ccc3nc(N)nc(N)c3c2)cc1)C(=O)OCC (centres undefined): 7.7
- Nc1nc(O)c2c(Sc3ccc4ccccc4c3)cccc2n1: 4.68
- Nc1ncnc2ccc([S+]([O-])c3ccc4ccccc4c3)cc12 (centres undefined): 4.58
- Cc1c(CNc2ccc(C(=O)NC(CC(=O)O)C(=O)O)cc2)ccc2nc(N)nc(N)c12 (centres undefined): 8.6

[1] Nc1nc(S)c2cc(Sc3ccc4ccccc4c3)ccc2n1
[2] Oc1nc(S)nc2ccc(Sc3ccc4ccccc4c3)cc12
[3] Nc1nc(N)c2cc(CNc3ccc(C(=O)O)cc3)ccc2n1
Input line: Descending sort on log(1/I50) required. Answer by writing out the labels in the requested order.
Output line: 3, 1, 2

[A] Nc1nc(N)c2c(/C=C/c3ccc4ccccc4c3)cccc2n1
[B] CCOC(=O)c1ccc(CNc2ccc3nc(N)nc(O)c3c2)cc1
Input line: For the pair A and B , which entry has the numerically smaller recorded log(1/I50)? # respond with the chosen item's label
Output line: B

[P] CCOC(=O)c1ccc(NCc2ccc3nc(N)nc(N)c3c2)cc1
[Q] Nc1nc(O)c2cc(S(=O)(=O)c3ccc(Cl)c(Cl)c3)ccc2n1
[R] Sc1nc(S)c2cc(Sc3ccc4ccccc4c3)ccc2n1
Input line: Provide the items ranked by increasing log(1/I50). Answer by writing out the labels in the requested order.
Output line: R, Q, P

====

Catalogue of log(1/SD90) readings, one per entry.
- Test system: Plasmodium berghei
- assay-info: Antimalarial activity against Plasmodium berghei infected mouse assessed as suppression of parasitemia administered through diet for 6 days
- Assay type: functional
Please reply with the value in numeric form only.

Consider the following illustrative entries.
* CCN(CC)c1nc(N(CC)CC)c2cc(NCc3ccc(Cl)c(Cl)c3)ccc2n1 | 3.31
* Nc1nc(N)c2cc(NCc3ccccc3N)ccc2n1 | 3.07
* CCCN(Cc1ccc(Cl)cc1)c1ccc2nc(N)nc(N)c2c1 | 6.3
* CN(C)c1nc(N(C)C)c2cc(NCc3ccc(Cl)c(Cl)c3)ccc2n1 | 4.21
* CCN(Cc1ccc(Cl)c(Cl)c1)c1ccc2nc(N)nc(N)c2c1 | 6

Input line: Using known records, supply log(1/SD90) for CCCCNc1nc(NCCCC)c2cc(NCc3ccc(Cl)c(Cl)c3)ccc2n1
Output line: 3.47

Input line: Using known records, supply log(1/SD90) for Nc1nc(N)c2cc(NCc3ccc4ccccc4c3Cl)ccc2n1
Output line: 4.59

Input line: Using known records, supply log(1/SD90) for CCN(Cc1ccc(Cl)c(Cl)c1)c1ccc2nc(N)nc(N)c2c1C
Output line: 5.2

Input line: Using known records, supply log(1/SD90) for CCCCCCCCN(Cc1ccc(Cl)cc1)c1ccc2nc(N)nc(N)c2c1
Output line: 4.08

Input line: Using known records, supply log(1/SD90) for Nc1nc(N)c2cc(NCc3cccs3)ccc2n1
Output line: 3.82

Input line: Using known records, supply log(1/SD90) for CC(Nc1ccc2nc(N)nc(N)c2c1)c1ccc(Cl)c(Cl)c1 (configuration not stated)
Output line: 4.6

Input line: Using known records, supply log(1/SD90) for Nc1nc(N)c2cc(NCc3ccccc3[N+](=O)[O-])ccc2n1
Output line: 3.26

====

- target-system: UniProt P00380
property: log(1/I50)

Consider the following illustrative entries.
• Nc1nc(S)c2cc(S(=O)(=O)c3ccc4ccccc4c3)ccc2n1 = 5.17
• CCCCOC(=O)c1ccc(NCc2ccc3nc(N)nc(N)c3c2Cl)cc1 = 7.68
• Nc1nc(O)c2cc(S(=O)(=O)c3ccc4ccccc4c3)ccc2n1 = 6.3
• Nc1nc(N)c2c(S(=O)(=O)c3ccc(Cl)c(Cl)c3)cccc2n1 = 5.85

[A] Nc1nc(N)c2c(Cl)c(CNc3ccc(C(=O)O)cc3)ccc2n1
[B] Nc1nc(O)c2cc(CNc3ccc(C(=O)O)cc3)ccc2n1
Input line: Lab notebook, comparison: A versus B , higher log(1/I50) goes to which? # respond with the chosen item's label
Output line: A

[A] CCOC(=O)c1ccc(NCc2ccc3nc(N)nc(N)c3c2Cl)cc1
[B] Nc1nc(O)c2cc(Sc3ccc(Cl)c(Cl)c3)ccc2n1
Input line: Lab notebook, comparison: A versus B , higher log(1/I50) goes to which? # respond with the chosen item's label
Output line: A

[1] Nc1nc(N)c2c(Sc3ccc(Cl)c(Cl)c3)cccc2n1
[2] Nc1nc(O)nc2ccc(Sc3ccc4ccccc4c3)cc12
Input line: Lab notebook, comparison: 1 versus 2 , higher log(1/I50) goes to which? # respond with the chosen item's label
Output line: 1

====

- target-system: Dihydrofolate reductase (Enterococcus faecium)
property: log(1/I50)

* Cc1c(CNc2ccc(C(=O)O)cc2)ccc2nc(N)nc(N)c12 | 7.96
* Nc1nc(O)c2cc(Sc3ccc4ccccc4c3)ccc2n1 | 6.74
* CCOC(=O)c1ccc(CNc2ccc3nc(N)nc(N)c3c2Cl)cc1 | 8.2
* CCOC(=O)c1ccc(CNc2ccc3nc(N)nc(O)c3c2Cl)cc1 | 6.09
* CCOC(=O)c1ccc(CNc2ccc3nc(N)nc(N)c3c2)cc1 | 7.34
* Nc1nc(N)c2cc(Sc3ccc(Cl)c(Cl)c3)ccc2n1 | 8.24
